meta.source: ChEMBL document CHEMBL4422618

As a worked illustration, we turn to pIC50 data collected for Prostaglandin G/H synthase 2 (Homo sapiens, UniProt P35354).
pIC50: −log10 of the molar value.

Check out these entries, answers already filled in.
COc1ccc(-c2noc(C)c2-c2ccc(OC)cc2)cc1 ... 6.46
COc1ccc(-c2noc(N)c2-c2ccc(OC)cc2)cc1 ... < 4.30
COc1ccc(-c2c(-c3ccc(N)cc3)noc2CC(=O)O)cc1 ... < 4.30
COc1ccc(-c2c(-c3ccc(NC(C)=O)cc3)noc2CC(=O)O)cc1 ... < 4.30
COc1ccc(-c2c(-c3ccc(F)cc3)noc2N)cc1 ... < 4.30

Lab note: measured pIC50 of Nc1onc(-c2ccc([N+](=O)[O-])cc2)c1-c1ccc(F)cc1 was < 4.30

Lab note: measured pIC50 of COc1ccc(-c2noc(CCO)c2-c2ccc(OC)cc2)cc1 was 6.72

---

experiment: Genotoxicity in Escherichia coli PQ37 at 500 uM after overnight incubation by SOS chromotest; assay type: toxicity
quantity_measured: Activity

CC(=O)Oc1ccccc1C(=O)O ... Non-Toxic
COc1ccc(-c2noc(CC(=O)O)c2-c2ccc(OC)cc2)cc1 ... Non-Toxic
C=Cc1onc(-c2ccc(OC)cc2)c1-c1ccc(OC)cc1 ... Non-Toxic
O=[N+]([O-])c1cc[n+]([O-])c2ccccc12 [4-NITROQUINOLINE-1-OXIDE] ... Toxic

---

assay: Hemolytic activity in erythrocytes (unknown origin) at 100 uM after 3 hrs by spectrophotometric analysis; type: ADME, cell-based, Erythrocyte; conditions: read-out: Activity
Some compounds, each annotated with its measured hemolysis at 3 h, 100 µM.
Report the figure in % without appending any unit label.

Check out these entries, answers already filled in.
COc1ccc(-c2noc(CC(=O)O)c2-c2ccc(OC)cc2)cc1 ... 0
CC(=O)Oc1ccccc1C(=O)O ... 0

For the next question, use this compound.
Lab note: measured hemolysis at 3 h, 100 µM of C=Cc1onc(-c2ccc(OC)cc2)c1-c1ccc(OC)cc1 was 0

---

Biological target: Prostaglandin G/H synthase 1 (Ovis aries)
Sequence (P05979 whole entry): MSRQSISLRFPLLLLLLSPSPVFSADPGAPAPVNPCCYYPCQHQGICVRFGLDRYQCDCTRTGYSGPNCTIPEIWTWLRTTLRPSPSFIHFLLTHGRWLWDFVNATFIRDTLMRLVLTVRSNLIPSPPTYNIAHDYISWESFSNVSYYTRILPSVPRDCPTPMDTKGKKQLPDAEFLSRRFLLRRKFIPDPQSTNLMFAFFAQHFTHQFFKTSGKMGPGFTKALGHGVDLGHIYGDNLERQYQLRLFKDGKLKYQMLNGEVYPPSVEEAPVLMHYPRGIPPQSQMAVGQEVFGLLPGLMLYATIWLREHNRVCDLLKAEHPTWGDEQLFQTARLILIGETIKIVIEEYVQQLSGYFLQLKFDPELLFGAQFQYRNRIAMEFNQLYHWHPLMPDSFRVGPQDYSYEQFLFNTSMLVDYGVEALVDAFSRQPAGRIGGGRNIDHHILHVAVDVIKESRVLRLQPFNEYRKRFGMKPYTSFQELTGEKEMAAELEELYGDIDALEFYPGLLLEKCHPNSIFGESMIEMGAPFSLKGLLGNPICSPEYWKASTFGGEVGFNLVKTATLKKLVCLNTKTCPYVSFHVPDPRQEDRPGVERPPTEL
quantity_measured: IC50 (µM)

(a) COc1ccc(-c2noc(N)c2-c2ccc(OC)cc2)cc1
(b) COc1ccc(-c2c(-c3ccc(NC(C)=O)cc3)noc2CC(=O)O)cc1
(c) COc1ccc(-c2c(-c3ccc(F)cc3)noc2C)cc1
Sort the items above by IC50, starting with the smallest value. Present the labels in the sequence the task asks for. c, a, b
(c: 3 µM, a: 8.3 µM, b: 12 µM)
